- System: HEC-1-A cells
- assayMethodText: MTT cytotoxicity of anticancer peptides
- Assay type: cell-based, human
- details: HEC-1-A, MTT, 0-400 μM, 48 h (Fig. 1A), mean ± SD; read-out: fifty percent of growth inhibition concentration (IC50)
- Experimental: Cells were seeded into 96-well tissue culture plates at a concentration of 1×10^4 cells/200 μl/well overnight. Subsequently, the cells were treated with serial dilutions of ACP, scrambled ACP, or non-ACP. After 48 h of incubation, the cell viability of each line was determined by the MTT colorimetric assay (Sigma-Aldrich).
Where no end group is shown, it is not given here.
quantityKind: IC50 (µM)

sequenceEntry: RQPQNQRQEQFQEQR [sQ7, reference compound]
endpointValue: 158

###

- System: HEC-1-A cells
- assayMethodText: MTT cytotoxicity of anticancer peptides
- Assay type: cell-based, human
- details: HEC-1-A, MTT, 48 h, mean ± SD; read-out: IC50 (50% decrease of cell viability)
Where no end group is shown, it is not given here.
Reported values of IC50 for individual entries
quantityKind: IC50 (µM)

sequenceEntry: GLLGVLGSVAKHVLPHVVPVIAEHL [ACP NO. 8]
quantityKind: IC50
valueUnit: µM
endpointValue: 23.7
--
sequenceEntry: FKGGGPYGQGVTRGQDLSGKDF [ACP NO. 1]
quantityKind: IC50
valueUnit: µM
endpointValue: 27.5
